Parameter: Papp B→A at 120 min, 5 μM. Scope: all listed entries.
- Tested on: MDR1
- Test Description: MDCK-MDR1 permeability assay (BBB penetration potential)
- Type: in vitro ADME
- Assay Conditions: dog, MDCK-MDR1; 5 μM, 120 minutes, pH 7.4

Compound: CN(c1nnc(-c2ccc(-c3cnn(C)c3)cc2O)s1)[C@@H]1C[C@H]2CC[C@@H]([C@@H]1F)N2C (single isomer, unassigned) [Compound E-25B]
Papp B→A at 120 min, 5 μM [×10⁻⁶ cm/s]: 22.7

Compound: CN(c1nnc(-c2ccc(-c3ccn(C)c(=O)c3)cc2O)s1)[C@H]1C[C@@H]2CC[C@@H](N2)[C@H]1F (single isomer, unassigned)
Papp B→A at 120 min, 5 μM [×10⁻⁶ cm/s]: 71.4

Compound: COc1cc(-c2ccc(-c3nnc(N(C4CC4)[C@@H]4C[C@H]5CC[C@H](N5)[C@@H]4F)s3)c(O)c2)cc(F)n1
Papp B→A at 120 min, 5 μM [×10⁻⁶ cm/s]: 12

Compound: CN(c1nnc(-c2ccc(-c3cc(=O)n(C)cn3)cc2O)s1)[C@@H]1C[C@H]2CC[C@H](N2)[C@@H]1F (single isomer, unassigned)
Papp B→A at 120 min, 5 μM [×10⁻⁶ cm/s]: 27.8

Compound: COc1cc(-c2ccc(-c3nnc(N(C4CC4)[C@H]4C[C@@H]5CC[C@@H](N5)[C@H]4F)s3)c(O)c2)cc(F)n1
Papp B→A at 120 min, 5 μM [×10⁻⁶ cm/s]: 9.89

Compound: CN(c1nnc(-c2cc(F)c(-c3cnn(C)c3)cc2O)s1)[C@H]1C[C@@H]2CC[C@@H](N2)[C@H]1F (single isomer, unassigned)
Papp B→A at 120 min, 5 μM [×10⁻⁶ cm/s]: 36.3

Compound: CN(c1nnc(-c2ccc(-c3ccn(CF)c(=O)c3)cc2O)s1)[C@H]1C[C@@H]2CC[C@@H](N2)[C@H]1F (single isomer, unassigned) [Compound E-15B]
Papp B→A at 120 min, 5 μM [×10⁻⁶ cm/s]: 64.8

Compound: CN(c1nnc(-c2ccc(-c3cnn(CF)c3)cc2O)s1)[C@@H]1C[C@H]2CC[C@H](N2)[C@@H]1F (single isomer, unassigned) [Compound E-10B]
Papp B→A at 120 min, 5 μM [×10⁻⁶ cm/s]: 48.9

Compound: CN(c1nnc(-c2cc(F)c(-c3cn[nH]c3)cc2O)s1)[C@@H]1C[C@H]2CC[C@@H]([C@@H]1F)N2C (single isomer, unassigned) [Compound E-24B]
Papp B→A at 120 min, 5 μM [×10⁻⁶ cm/s]: 29.4

Compound: COc1cc(-c2ccc(-c3nnc(N(C)[C@H]4C[C@@H]5CC[C@@H](N5)[C@H]4F)s3)c(O)c2)ccn1 (single isomer, unassigned) [Compound E-11B]
Papp B→A at 120 min, 5 μM [×10⁻⁶ cm/s]: 6.07

Compound: CN(c1nnc(-c2cc(F)c(-c3cn[nH]c3)cc2O)s1)[C@@H]1C[C@H]2CC[C@H](N2)[C@@H]1F (single isomer, unassigned)
Papp B→A at 120 min, 5 μM [×10⁻⁶ cm/s]: 35.2

---

- Test system: MDR1
- Test Description: MDCK-MDR1 permeability assay (BBB penetration potential)
- Format: in vitro ADME
- Assay Conditions: dog, MDCK-MDR1; 5 μM, 120 minutes, pH 7.4

Compound: CN(c1nnc(-c2cc(F)c(-c3cnn(C)c3)cc2O)s1)[C@@H]1C[C@H]2CC[C@H](N2)[C@@H]1F (single isomer, unassigned)
Papp A→B at 120 min, 5 μM: 5.38 ×10⁻⁶ cm/s
--
Compound: CN(c1nnc(-c2cc(F)c(-c3cn[nH]c3)cc2O)s1)[C@@H]1C[C@H]2CC[C@@H]([C@@H]1F)N2C (single isomer, unassigned) [Compound E-24B]
Papp A→B at 120 min, 5 μM: 4.16 ×10⁻⁶ cm/s
--
Compound: CN(c1nnc(-c2ccc(-c3ccn(C)c(=O)c3)cc2O)s1)[C@H]1C[C@@H]2CC[C@@H](N2)[C@H]1F (single isomer, unassigned)
Papp A→B at 120 min, 5 μM: 1.81 ×10⁻⁶ cm/s
--
Compound: CN(c1nnc(-c2ccc(-c3cn[nH]c3)cc2O)s1)[C@@H]1C[C@H]2CC[C@@H]([C@@H]1F)N2C (single isomer, unassigned) [Compound E-23B]
Papp A→B at 120 min, 5 μM: 5.69 ×10⁻⁶ cm/s
--
Compound: CN(c1nnc(-c2ccc(-c3cnn(C)c3)cc2O)s1)[C@H]1C[C@@H]2CC[C@@H](N2)[C@H]1F
Papp A→B at 120 min, 5 μM: 10.5 ×10⁻⁶ cm/s
--
Compound: COc1cc(-c2ccc(-c3nnc(N(C)[C@H]4C[C@@H]5CC[C@@H](N5)[C@H]4F)s3)c(O)c2)ccn1 (single isomer, unassigned) [Compound E-11B]
Papp A→B at 120 min, 5 μM: 3.71 ×10⁻⁶ cm/s
--
Compound: CN(c1nnc(-c2cc(F)c(-c3cnn(C)c3)cc2O)s1)[C@H]1C[C@@H]2CC[C@@H](N2)[C@H]1F (single isomer, unassigned)
Papp A→B at 120 min, 5 μM: 5.87 ×10⁻⁶ cm/s
--
Compound: CN(c1nnc(-c2ccc(-c3cnn(C)c3)cc2O)s1)[C@@H]1C[C@H]2CCC[C@H](N2)[C@@H]1F
Papp A→B at 120 min, 5 μM: 5.28 ×10⁻⁶ cm/s
--
Compound: CN(c1nnc(-c2cc(F)c(-c3cn[nH]c3)cc2O)s1)[C@H]1C[C@@H]2CC[C@@H](N2)[C@H]1F (single isomer, unassigned)
Papp A→B at 120 min, 5 μM: 3.16 ×10⁻⁶ cm/s
--
Compound: CN(c1nnc(-c2ccc(-c3cnn(C)c3)cc2O)s1)[C@H]1C[C@@H]2CCC[C@@H](N2)[C@H]1F
Papp A→B at 120 min, 5 μM: 5.53 ×10⁻⁶ cm/s
--
Compound: CN(c1nnc(-c2ccc(-c3cnn(C)c3)cc2O)s1)[C@@H]1C[C@H]2CC[C@@H]([C@@H]1F)N2C (single isomer, unassigned) [Compound E-25B]
Papp A→B at 120 min, 5 μM: 7.16 ×10⁻⁶ cm/s
--
Compound: COc1cc(-c2ccc(-c3nnc(N(C4CC4)[C@H]4C[C@@H]5CC[C@@H](N5)[C@H]4F)s3)c(O)c2)cc(F)n1
Papp A→B at 120 min, 5 μM: 1.87 ×10⁻⁶ cm/s
--
Compound: CN(c1nnc(-c2ccc(-c3cn[nH]c3)cc2O)s1)[C@H]1C[C@@H]2CC[C@@H](N2)[C@H]1F (single isomer, unassigned)
Papp A→B at 120 min, 5 μM: 5.22 ×10⁻⁶ cm/s
--
Compound: CN(c1nnc(-c2ccc(-c3cc(=O)n(C)cn3)cc2O)s1)[C@@H]1C[C@H]2CC[C@H](N2)[C@@H]1F (single isomer, unassigned)
Papp A→B at 120 min, 5 μM: 1.31 ×10⁻⁶ cm/s

Cited source: patent US20230069804A1
